Listing of recorded pEC50 by entry.
- system-tested: UniProt:P25090
- Sequence (P25090 1-351): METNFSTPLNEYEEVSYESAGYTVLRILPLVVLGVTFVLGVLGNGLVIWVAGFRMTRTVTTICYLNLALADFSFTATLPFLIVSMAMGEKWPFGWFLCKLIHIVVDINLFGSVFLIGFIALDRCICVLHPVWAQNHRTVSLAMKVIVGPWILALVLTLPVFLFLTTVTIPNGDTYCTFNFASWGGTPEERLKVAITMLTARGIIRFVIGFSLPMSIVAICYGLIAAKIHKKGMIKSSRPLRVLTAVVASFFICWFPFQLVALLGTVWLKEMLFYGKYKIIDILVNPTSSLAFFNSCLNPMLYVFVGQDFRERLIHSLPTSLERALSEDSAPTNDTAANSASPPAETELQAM
- procedure-details: Agonistic activity in hFPR2-Aq-CHO cells (FLIPR Calcium 5 fluorescence assay)
- condition-notes: 11 point half log dilution, final assay concentration from 10µM
In textbook form, pEC50 equals minus log to base ten of the concentration in mol/L.

- COc1cnc([C@@H]2CN(CC3CCC(OC)CC3)CC[C@H]2NC(=O)Nc2ccc(Cl)cc2)c(F)c1 (relative stereo): 9.10
- COc1ccc([C@@H]2CN(c3ccc(F)cc3)CC[C@H]2NC(=O)Nc2cc(C)ns2)cn1 (relative stereo): 8.00
- COc1cnc([C@@H]2CN(CCN(C)C)CC[C@H]2NC(=O)Nc2ccc(Cl)cc2)c(F)c1 (relative stereo): 8.98

// pEC50 lookup, key: Cc1ccc(CN2CC[C@@H](NC(=O)Nc3ccc(Cl)cc3)[C@H](c3ccc(Cl)s3)C2)cn1 (relative stereo) 9.00

What pEC50 value was documented for this compound, COc1ccc([C@@H]2CN(Cc3cncc(C)c3)CC[C@H]2NC(=O)Nc2ccc(Cl)cc2)nc1 (relative stereo) ? 10.22

Look up pEC50 for this compound: COCCC(=O)N1CC[C@@H](NC(=O)Nc2ccc(Cl)cc2)[C@H](c2ccc(OC)cn2)C1 (relative stereo) 7.64

Looking for the measured pEC50 of Cc1cc(NC(=O)N[C@@H]2CCN(c3cccnn3)C[C@H]2c2ccc(Cl)cn2)sn1 (relative stereo) , can you help? 8.52

Name the recorded pEC50 for COc1ccc([C@H]2CN(CCO)CC[C@@H]2NC(=O)Nc2ccc(Cl)cc2)nc1 . 8.70

Which pEC50 reading was recorded for the compound CS(=O)(=O)n1ccc(CN2CC[C@@H](NC(=O)Nc3ccc(Cl)cc3)[C@H](c3ccc(Cl)s3)C2)n1 (single isomer, unassigned) [Ex-77] ? 10.22

====

- system-tested: h FPR2 (Homo sapiens)
- Construct: expressed in transfected cells
- Sequence (P25090 1-351): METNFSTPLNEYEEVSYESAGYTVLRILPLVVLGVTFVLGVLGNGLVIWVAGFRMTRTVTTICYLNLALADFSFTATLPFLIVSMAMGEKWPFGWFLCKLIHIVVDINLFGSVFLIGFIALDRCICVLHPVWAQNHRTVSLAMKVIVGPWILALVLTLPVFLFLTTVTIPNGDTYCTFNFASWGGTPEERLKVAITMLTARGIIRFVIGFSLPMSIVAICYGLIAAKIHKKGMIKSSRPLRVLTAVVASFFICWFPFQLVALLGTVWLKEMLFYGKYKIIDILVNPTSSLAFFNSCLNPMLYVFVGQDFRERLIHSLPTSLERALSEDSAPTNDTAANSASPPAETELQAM
- procedure-details: Agonistic activity in hFPR2-Aq-CHO cells (FLIPR Calcium 5 fluorescence assay)
- Assay type: cell-based
- condition-notes: agonistic response at 0.1µM
In this section we review reported activation at 0.1 µM values for a set of compounds.
Write the value in % as a bare number.

Reference set, count: 5
• COc1ccc([C@@H]2CN(CC3CC3)CC[C@H]2NC(=O)Nc2ccc(Cl)cc2)nc1 (relative stereo) = 44
• Cc1cc(NC(=O)N[C@@H]2CCN(c3ccncn3)C[C@H]2c2ccc(Cl)cn2)sn1 (relative stereo) = 30
• O=C(Nc1ccccc1)N[C@@H]1CCN(CCO)C[C@H]1c1ccc(Cl)cn1 (relative stereo) = 25
• COc1ccc([C@@H]2CN(CC(C)(C)O)CC[C@H]2NC(=O)Nc2ccc(Cl)cc2)nc1 (relative stereo) = 0.2
• O=C(Nc1ccc(Cl)cc1)N[C@@H]1CCN(C(=O)CCO)C[C@H]1c1ccc(Cl)s1 (relative stereo) = 38

I'm curious: which activation at 0.1 µM was measured for COc1ccc([C@@H]2CN(CC(N)=O)CC[C@H]2NC(=O)Nc2ccc(Cl)cc2)nc1 (relative stereo) tested on h FPR2 (Homo sapiens)? 3

Lab note: need activation at 0.1 µM with h FPR2 (Homo sapiens) for entry O=C(Nc1ccc(Cl)cc1)N[C@@H]1CCN(CC2CCOCC2)C[C@H]1c1ccc(Cl)s1 (relative stereo) , please look it up. 19

Return activation at 0.1 µM measured with h FPR2 (Homo sapiens) given this compound: COc1ccc([C@@H]2CN(CC(F)F)CC[C@H]2NC(=O)Nc2ccc(C#N)cc2)nc1 (relative stereo) 17

Lookup: activation at 0.1 µM / h FPR2 (Homo sapiens) / O=C(Nc1ccccc1)N[C@@H]1CCN(C2CNC2)C[C@H]1c1ccc(Cl)cn1 (relative stereo) 19

====

- system-tested: h FPR2 (Homo sapiens, UniProt P25090)
- Sequence (P25090 1-351): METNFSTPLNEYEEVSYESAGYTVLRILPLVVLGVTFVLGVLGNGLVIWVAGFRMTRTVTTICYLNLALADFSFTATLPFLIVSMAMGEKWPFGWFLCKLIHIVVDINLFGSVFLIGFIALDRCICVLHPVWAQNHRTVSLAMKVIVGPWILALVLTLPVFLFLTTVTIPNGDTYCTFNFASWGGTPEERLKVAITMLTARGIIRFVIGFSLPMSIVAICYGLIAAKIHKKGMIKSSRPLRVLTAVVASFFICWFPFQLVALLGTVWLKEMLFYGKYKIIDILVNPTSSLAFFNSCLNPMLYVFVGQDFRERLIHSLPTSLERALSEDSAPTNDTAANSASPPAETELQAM
- procedure-details: Agonistic activity in hFPR2-Aq-CHO cells (FLIPR Calcium 5 fluorescence assay)
- condition-notes: 11 point half log dilution, final assay concentration from 10µM
measured-attribute: pEC50
Interpret pEC50 as the negative base-10 log of the concentration measured in mol/L.

* COc1ccc([C@H]2CN(c3ccc(F)cc3)C(=O)C[C@H]2NC(=O)Nc2ccc(Cl)cc2)nc1 (relative stereo) [Ex-11] | 8.22
* COc1ccc([C@@H]2CN(c3ccnc(C)n3)CC[C@H]2NC(=O)Nc2ccc(Cl)cc2)nc1 (relative stereo) [Ex-210] | 8.30
* COc1ccc([C@@H]2CN(CCCO)CC[C@H]2NC(=O)Nc2ccc(Cl)cc2)nc1 (relative stereo) [Ex-103] | 8.70
* COc1ccc([C@@H]2CN(C)CC[C@H]2NC(=O)Nc2ccc(Cl)cc2)nc1 (relative stereo) [Ex-126] | 8.92
* COc1ccc([C@@H]2CN(c3ccncn3)CC[C@H]2NC(=O)Nc2cc(C)ns2)cn1 (relative stereo) [Ex-4] | 7.96

What value of measured pEC50 is listed for COc1cnc([C@@H]2CN(CCO)CC[C@H]2NC(=O)Nc2ccc(Cl)cc2)c(F)c1 (relative stereo) [Ex-199] ? 9.30

For COc1ccc([C@@H]2CN(CC3CC(O)C3)CC[C@H]2NC(=O)Nc2ccc(Cl)cc2)nc1 (single isomer, unassigned) [Ex-203] , what is its reported pEC50? 9.15

pEC50 for COCCCN1CC[C@@H](NC(=O)Nc2ccc(Cl)cc2)[C@H](c2ccc(OC)cn2)C1 (single isomer, unassigned) [Ex-191] ? 9.15

Fill blank: measured pEC50 of the compound COc1ccc([C@@H]2CN(Cc3cnn(S(C)(=O)=O)c3)CC[C@H]2NC(=O)Nc2ccc(C#N)cc2)nc1 (relative stereo) [Ex-140] is ____. 9.05

Reported pEC50 for COc1ccc([C@@H]2CN(CC(F)F)CC[C@H]2NC(=O)Nc2ccc(C#N)cc2)nc1 (racemic) [Ex-113] : what is it? 8.92

Fill in: pEC50 of COc1ccc([C@@H]2CN(CC(N)=O)CC[C@H]2NC(=O)Nc2ccc(Cl)cc2)nc1 (relative stereo) [Ex-129] is ___ 9.52

Report pEC50 for COc1ccc([C@@H]2CN(CC3CC3)CC[C@H]2NC(=O)Nc2ccc(Cl)cc2)nc1 (relative stereo) [Ex-127] please. 9.80

Suppose we examine the compound COc1ccc([C@@H]2CN(C(=O)CN(C)C)CC[C@H]2NC(=O)Nc2ccc(Cl)cc2)nc1 (racemic) [Ex-94] ; what pEC50 value has been reported? 8.70

Entry COc1ccc([C@@H]2CN(CCS(C)(=O)=O)CC[C@H]2NC(=O)Nc2ccc(Cl)cc2)nc1 (relative stereo) [Ex-93] : reported pEC50 = ? 8.52
